System: Trypanosoma brucei
assay.info: Trypanosoma brucei 72 hour study
Type: functional, organism-based
Parameters: scale not given: in the data most compounds retested in dose-response had high values
assay.context: 30 µM; 30.03 µM
Among all 66,000 compounds or so, about 960 (1.5%) showed an effect of 50% or more. What follows is part of a selection rich in strong results, with near analogues and random picks from the rest.
Listed here are compounds together with their documented Percent Effect.
metric: Percent Effect (%)

> print(dat)
                                    compound  unit.symbol  observed.value
 1  Cc1nn(C)c2c(=O)n(CC(=O)NCC3CCCO3)ccc12 (configuration not stated)            %          -1.766
 2  CS(=O)(=O)c1ccc(CN2C[C@H]3CC[C@@H]2CN(c2ncccn2)C3)cc1            %          -59.99
 3  CCN1C[C@@H]2[C@@H](OC)CCN(S(=O)(=O)c3ccccc3F)[C@@H]2C1.O=C(O)C(F)(F)F            %           30.94
 4  CCNC(=O)NC1CCC(Oc2ccccc2C#N)CC1 (configuration not stated)            %            74.2
 5  Cl.O=C(CCC1CCCC1)NCCn1nc(C2CCNC2)c2cccnc21 (configuration not stated)            %           11.21
 6         CC(=O)N1CCN(CCNc2snc(Cl)c2C#N)CC1            %           1.028
 7  CCc1nc(CN(C)C2CCN(CCc3ccccn3)C2)no1 (configuration not stated)            %           3.156
 8    Cc1cc(-c2cnc(NC3CC3)nc2-c2ccc(C)o2)on1            %           25.68
 9  CN(C)CCN(C)C(=O)NC1CCC(Oc2ccccc2C#N)CC1 (configuration not stated)            %           7.047
10  OC(CNc1nc(C2CCCC2)nc2c1CCNCC2)C(F)(F)F (configuration not stated)            %           99.48
11  Cc1nc2c(c(NCC(O)C(F)(F)F)n1)CCNCC2 (configuration not stated)            %          -77.95
12  Cc1ccnc(NC(=O)C2CCN(CCCc3cn[nH]c3)CC2)c1            %          -19.03
13  Cc1noc(C)c1CN1CCO[C@H]2[C@H](Oc3ncccc3F)CC[C@@H]21.O=C(O)C(F)(F)F.O=C(O)C(F)(F)F            %          -9.669
14  CC(=O)N1CCC2(CCN(C(=O)c3cccc(C(F)(F)F)c3)CC2)C1            %          -21.66
15  CN(C)C1(C(=O)NC2CCC(Oc3ccccc3C#N)CC2)CCC1 (configuration not stated)            %          -17.82
16    N#Cc1c(Cl)nsc1NCc1ccc(N2CCC(CO)CC2)cc1            %          -28.26
17  OC(CNc1ncnc2c1CCNCC2)C(F)(F)F (configuration not stated)            %          -18.54
18  COc1cc(Cc2nc3c([nH]2)CC(C)(C)CNC3=O)cc(OC)c1            %          -74.64
19  CCn1cc(NC(=O)C(C)n2ncc(Cl)c2C)c(C(=O)NC)n1 (configuration not stated)            %          -19.95
20  O=C(O)C(F)(F)F.O=C(O)C(F)(F)F.O=C1COC2(CCN(Cc3cccs3)CC2)CN1c1cccnc1            %           -14.7
21  O=C(NCCC1COc2ccccc2O1)c1ccc(-c2cc[nH]n2)nc1 (configuration not stated)            %           51.23
22  Cc1ccc(CN2CCC3(CC2)NC(=O)CC3c2ccncc2)cc1C.O=C(O)C(F)(F)F.O=C(O)C(F)(F)F (configuration not stated)            %          -19.59

Reference source: ChEMBL document CHEMBL3988442
